assay_notes: Measured inonisation constant (pKa)
Assay type: physicochemical
assay_conditions: read-out: pKa2
quantity_kind: pKa
Just the number, please, no unit attached.

Ask | Bench note: what pKa did `CCNC1CN(c2cc3c(cc2F)c(=O)c(C(=O)O)cn3C2CC2)C1` show?
Reply | 8.62

---

Tested on: Enterococcus faecalis
assay_notes: In vitro minimum inhibitory concentration for Streptococcus faecalis ATCC 10541
Format: functional
Could you please mark True for values of MIC below 1 µg/mL and False for values at or above it?

Ask | # check: MIC < 1 µg/mL for `C[C@H]1N(c2cc3c(cc2F)c(=O)c(C(=O)O)cn3C2CC2)C[C@]1(C)O`
Reply | False

Ask | # check: MIC < 1 µg/mL for `CC1(C)[C@@H](N)CN1c1c(F)cc2c(=O)c(C(=O)O)cn(C3CC3)c2c1F`
Reply | True

Ask | # check: MIC < 1 µg/mL for `C[C@H]1[C@@H](O)CN1c1cc2c(cc1F)c(=O)c(C(=O)O)cn2C1CC1`
Reply | False

Ask | # check: MIC < 1 µg/mL for `C[C@H]1N(c2cc3c(cc2F)c(=O)c(C(=O)O)cn3C2CC2)C[C@]1(C)N`
Reply | False

Ask | # check: MIC < 1 µg/mL for `CN[C@H]1CN(c2cc3c(cc2F)c(=O)c(C(=O)O)cn3C2CC2)[C@@H]1C`
Reply | True

Ask | # check: MIC < 1 µg/mL for `CC[C@H]1[C@@H](N)CN1c1cc2c(cc1F)c(=O)c(C(=O)O)cn2C1CC1`
Reply | False

Ask | # check: MIC < 1 µg/mL for `C[C@@H]1[C@@H](O)CN1c1cc2c(cc1F)c(=O)c(C(=O)O)cn2C1CC1`
Reply | False

Ask | # check: MIC < 1 µg/mL for `C[C@H]1[C@H](N)CN1c1c(F)cc2c(=O)c(C(=O)O)cn(-c3ccc(F)cc3)c2c1Cl`
Reply | True

Ask | # check: MIC < 1 µg/mL for `C[C@H]1[C@H](N)CN1c1c(F)cc2c(=O)c(C(=O)O)cn(C3CC3)c2c1F`
Reply | True

Ask | # check: MIC < 1 µg/mL for `C[C@H]1N(c2c(F)cc3c(=O)c(C(=O)O)cn(C4CC4)c3c2F)C[C@]1(C)O`
Reply | True

Ask | # check: MIC < 1 µg/mL for `CCNC[C@H]1CN(c2cc3c(cc2F)c(=O)c(C(=O)O)cn3C2CC2)[C@@H]1C`
Reply | False

Ask | # check: MIC < 1 µg/mL for `C[C@H]1[C@H](N)CN1c1nc2c(cc1F)c(=O)c(C(=O)O)cn2-c1ccc(F)cc1`
Reply | False

Ask | # check: MIC < 1 µg/mL for `C[C@H]1[C@H](N)CN1c1cc2c(cc1F)c(=O)c(C(=O)O)cn2CCF`
Reply | False

Ask | # check: MIC < 1 µg/mL for `C[C@H]1[C@@H](O)CN1c1c(F)cc2c(=O)c(C(=O)O)cn(C3CC3)c2c1F`
Reply | False
